Catalogue of compounds with associated Hemolysis (HC10, concentration at 10% hemolytic activity)
Tested on: human red blood cells
PROTOCOL_DETAILS: Hemolytic assay
Assay type: cell-based
TEST_CONTEXT: mean (n = 2)

Query: Entry Cl.Cl.S=C(NCCCNCCCCCCNCCCNC(=S)NC(c1ccccc1)c1ccccc1)NC(c1ccccc1)c1ccccc1 has what Hemolysis (HC10, concentration at 10% hemolytic activity)?
Response: 2.96 µM

Query: Entry O=C(CC(c1ccccc1)(c1ccccc1)c1ccccc1)NCCCNCCCCCCCCCCCCNCCCNC(=O)CC(c1ccccc1)(c1ccccc1)c1ccccc1.O=C(O)C(F)(F)F.O=C(O)C(F)(F)F [Compound 18f] has what Hemolysis (HC10, concentration at 10% hemolytic activity)?
Response: ≤0.225 µM

Query: Entry O=C(CCC(=O)NCCCc1ccccc1)NCCCNCCCCCCCCCCCCNCCCNC(=O)CCC(=O)NCCCc1ccccc1.O=C(O)C(F)(F)F.O=C(O)C(F)(F)F [Compound 14f] has what Hemolysis (HC10, concentration at 10% hemolytic activity)?
Response: >32.7 µM

Query: Entry Cl.Cl.S=C(NCCCNCCCCCCCNCCCNC(=S)NC(c1ccccc1)c1ccccc1)NC(c1ccccc1)c1ccccc1 has what Hemolysis (HC10, concentration at 10% hemolytic activity)?
Response: ≤0.326 µM

Query: Entry O=C(CCC(=O)NCCC(c1ccccc1)c1ccccc1)NCCCNCCCCCCCCNCCCNC(=O)CCC(=O)NCCC(c1ccccc1)c1ccccc1.O=C(O)C(F)(F)F.O=C(O)C(F)(F)F [Compound 16d] has what Hemolysis (HC10, concentration at 10% hemolytic activity)?
Response: >29.8 µM

Moving on to the next compound.
Query: Entry O=C(CC(c1ccccc1)c1ccccc1)NCCCNCCCCCCCCCCNCCCNC(=O)CC(c1ccccc1)c1ccccc1.O=C(O)C(F)(F)F.O=C(O)C(F)(F)F [Compound 15e] has what Hemolysis (HC10, concentration at 10% hemolytic activity)?
Response: >34.4 µM

Data provenance: paper PMC10052977
